# Assayed System: T1, EDIII-DV1 (E protein domain III of dengue virus serotype DV-1) (dengue virus serotype DV-1, UniProt P17763 573-680)
# T1 construct: also called DENV-1; EDIII of DV-1
# T1 chain: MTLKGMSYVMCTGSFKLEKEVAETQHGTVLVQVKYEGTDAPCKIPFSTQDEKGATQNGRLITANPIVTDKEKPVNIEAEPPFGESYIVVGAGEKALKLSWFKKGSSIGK

{"Binder": "antibody A48 (antibody, V domains shown) VH: QVQLVQSGAEVKKPGASVKVSCKASGFNIKDTYMSWVRQAPEQGLEWMGRIDPENGDTKYDPKLQGRVTMTADTSTNTAYMELRSLRSDDTAVYYCARGWEGFAYWGQGTLVTVSS VL: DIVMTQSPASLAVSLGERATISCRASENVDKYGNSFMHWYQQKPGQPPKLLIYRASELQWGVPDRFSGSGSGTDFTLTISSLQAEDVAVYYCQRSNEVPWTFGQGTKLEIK", "Kd": "< 0.1 nM"}
{"Binder": "antibody A11 (antibody, V domains shown, also called mAb A11; 4E5A) VH: VKLLEQSGAELVKPGASVRLSCTASGFNIKDTYMSWVKQRPEQGLEWIGRIDPENGDTKYDPKFQGKATITADTSSNTAYLHLSSLTSGDTAVYYCSRGWEGFAYWGQGTLVTVSA VL: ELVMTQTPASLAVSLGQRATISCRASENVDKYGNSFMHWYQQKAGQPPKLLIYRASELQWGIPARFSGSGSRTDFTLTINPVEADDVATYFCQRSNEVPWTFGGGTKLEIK", "Kd": "0.269 nM"}
{"Binder": "antibody B48+A98V (antibody, V domains shown) VH: QVQLVQSGAEVKKPGASVKVSCKAGFNIKDTYMSWVRQAPEQGLEWMGRIDPENGDTKYDPKLQGRVTMTADTSTNTAYMELRSLRSDDTAVYYCVRGWEGFAYWGQGTLVTVSS VL: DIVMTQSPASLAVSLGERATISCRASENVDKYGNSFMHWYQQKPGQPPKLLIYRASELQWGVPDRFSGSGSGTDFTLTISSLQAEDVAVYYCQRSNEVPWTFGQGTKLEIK", "Kd": "< 0.1 nM"}

Ref: patent US20240425569A1
